- assayed-target: p110δ/p85α (Homo sapiens (Human), UniProt O00329)
- Sequence (O00329 whole entry): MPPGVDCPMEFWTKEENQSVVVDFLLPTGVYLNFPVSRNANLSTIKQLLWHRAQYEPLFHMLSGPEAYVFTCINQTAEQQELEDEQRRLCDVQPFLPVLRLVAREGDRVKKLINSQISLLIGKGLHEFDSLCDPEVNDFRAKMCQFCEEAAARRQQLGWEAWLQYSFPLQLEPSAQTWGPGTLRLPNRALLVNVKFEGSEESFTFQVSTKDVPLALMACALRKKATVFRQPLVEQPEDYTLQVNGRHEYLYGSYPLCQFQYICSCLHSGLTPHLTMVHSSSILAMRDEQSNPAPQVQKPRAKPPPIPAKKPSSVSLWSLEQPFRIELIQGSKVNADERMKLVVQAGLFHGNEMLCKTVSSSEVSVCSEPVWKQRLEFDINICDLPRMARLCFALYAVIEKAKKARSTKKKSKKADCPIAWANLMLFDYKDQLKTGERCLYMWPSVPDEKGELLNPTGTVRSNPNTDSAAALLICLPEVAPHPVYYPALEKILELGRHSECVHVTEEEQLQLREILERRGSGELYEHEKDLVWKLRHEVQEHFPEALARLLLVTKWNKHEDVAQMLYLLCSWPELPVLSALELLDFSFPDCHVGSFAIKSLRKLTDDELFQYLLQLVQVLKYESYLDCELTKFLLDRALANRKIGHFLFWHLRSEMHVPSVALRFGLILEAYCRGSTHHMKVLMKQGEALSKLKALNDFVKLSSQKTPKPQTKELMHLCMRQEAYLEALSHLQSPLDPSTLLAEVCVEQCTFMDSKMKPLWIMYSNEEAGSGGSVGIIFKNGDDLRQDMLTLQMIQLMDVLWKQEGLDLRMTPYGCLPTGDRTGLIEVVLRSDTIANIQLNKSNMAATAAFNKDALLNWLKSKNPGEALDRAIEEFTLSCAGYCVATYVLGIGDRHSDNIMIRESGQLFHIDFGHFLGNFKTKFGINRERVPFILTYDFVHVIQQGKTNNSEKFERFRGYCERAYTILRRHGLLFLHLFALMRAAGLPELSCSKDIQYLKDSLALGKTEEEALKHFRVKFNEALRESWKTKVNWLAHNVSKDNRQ
- Sequence (P27986 whole entry partner): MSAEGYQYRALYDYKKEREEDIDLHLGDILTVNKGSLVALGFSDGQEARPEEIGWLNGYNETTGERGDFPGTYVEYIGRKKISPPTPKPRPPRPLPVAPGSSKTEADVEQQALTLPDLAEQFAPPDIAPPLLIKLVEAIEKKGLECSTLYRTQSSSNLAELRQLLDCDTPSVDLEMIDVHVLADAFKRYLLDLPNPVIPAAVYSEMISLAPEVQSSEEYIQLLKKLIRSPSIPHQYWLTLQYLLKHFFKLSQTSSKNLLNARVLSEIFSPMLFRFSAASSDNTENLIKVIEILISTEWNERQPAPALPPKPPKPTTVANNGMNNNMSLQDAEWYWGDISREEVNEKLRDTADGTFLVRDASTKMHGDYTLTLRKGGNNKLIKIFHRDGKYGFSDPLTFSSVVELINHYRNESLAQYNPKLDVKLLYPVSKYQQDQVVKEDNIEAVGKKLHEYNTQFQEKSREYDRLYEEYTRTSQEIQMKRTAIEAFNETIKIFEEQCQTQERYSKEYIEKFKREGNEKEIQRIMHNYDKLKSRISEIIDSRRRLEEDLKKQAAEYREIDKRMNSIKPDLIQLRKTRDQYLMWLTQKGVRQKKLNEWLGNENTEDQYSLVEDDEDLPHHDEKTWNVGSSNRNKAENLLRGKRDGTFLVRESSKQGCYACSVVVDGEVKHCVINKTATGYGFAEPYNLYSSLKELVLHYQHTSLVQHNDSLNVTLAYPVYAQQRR
- protocol-details: PI 3-Kinase (human) HTRF assay, p110δ/p85α
- Assay type: biochemical
- settings: read-out: PI3K δ IC50
pIC50: −log10 of the molar value.
parameter-measured: pIC50

Worked set:
- Nc1nc2cc(-c3ccc4ncc(-c5cn[nH]c5)nc4c3)ccc2o1 [compound 78]: > 6.00
- Nc1nc2cc(-c3ccc4ncnc(OC5CCOCC5)c4c3)ccc2o1 [compound 47]: > 6.00
- CN1CCC(Nc2ncnc3ccc(-c4ccc5oc(N)nc5c4)cc23)CC1 [compound 35]: > 7.00

What measured pIC50 goes with CS(=O)(=O)N1CCC(Nc2cnc3ccc(-c4ccc5oc(N)nc5c4)cc3n2)CC1 [compound 95] ? > 7.00

What measured pIC50 goes with CC(C)N1CCC(Nc2ncnc3ccc(-c4ccc5oc(N)nc5c4)cc23)CC1 [compound 101] ? > 6.00

What measured pIC50 goes with C[C@H]1CN(c2cnc3ccc(-c4ccc5oc(N)nc5c4)cc3n2)CCN1 [compound 178] ? > 6.00

What measured pIC50 goes with CN1CCN(c2cc(-c3ccnc4ccc(-c5ccc6oc(N)nc6c5)cc34)ccn2)CC1 [compound 30] ? > 7.00

What measured pIC50 goes with CNC(=O)CN1CCN(c2cnc3ccc(-c4ccc5oc(N)nc5c4)cc3n2)CC1 [compound 120] ? > 5.00

What measured pIC50 goes with CS(=O)(=O)N1CCN(c2cnc3ccc(-c4ccc5oc(N)nc5c4)cc3n2)CC1 [compound 86] ? > 6.00

What measured pIC50 goes with CN(C)CC(=O)N1CCN(c2cnc3ccc(-c4ccc5oc(N)nc5c4)cc3n2)CC1 [compound 139] ? > 6.00

What measured pIC50 goes with Cn1cc(-c2cnc3ccc(-c4ccc5oc(N)nc5c4)cc3n2)cn1 [compound 94] ? > 5.00

----------
- assayed-target: p110β/p85α (Homo sapiens (Human), UniProt P42338)
- Sequence (P42338 whole entry): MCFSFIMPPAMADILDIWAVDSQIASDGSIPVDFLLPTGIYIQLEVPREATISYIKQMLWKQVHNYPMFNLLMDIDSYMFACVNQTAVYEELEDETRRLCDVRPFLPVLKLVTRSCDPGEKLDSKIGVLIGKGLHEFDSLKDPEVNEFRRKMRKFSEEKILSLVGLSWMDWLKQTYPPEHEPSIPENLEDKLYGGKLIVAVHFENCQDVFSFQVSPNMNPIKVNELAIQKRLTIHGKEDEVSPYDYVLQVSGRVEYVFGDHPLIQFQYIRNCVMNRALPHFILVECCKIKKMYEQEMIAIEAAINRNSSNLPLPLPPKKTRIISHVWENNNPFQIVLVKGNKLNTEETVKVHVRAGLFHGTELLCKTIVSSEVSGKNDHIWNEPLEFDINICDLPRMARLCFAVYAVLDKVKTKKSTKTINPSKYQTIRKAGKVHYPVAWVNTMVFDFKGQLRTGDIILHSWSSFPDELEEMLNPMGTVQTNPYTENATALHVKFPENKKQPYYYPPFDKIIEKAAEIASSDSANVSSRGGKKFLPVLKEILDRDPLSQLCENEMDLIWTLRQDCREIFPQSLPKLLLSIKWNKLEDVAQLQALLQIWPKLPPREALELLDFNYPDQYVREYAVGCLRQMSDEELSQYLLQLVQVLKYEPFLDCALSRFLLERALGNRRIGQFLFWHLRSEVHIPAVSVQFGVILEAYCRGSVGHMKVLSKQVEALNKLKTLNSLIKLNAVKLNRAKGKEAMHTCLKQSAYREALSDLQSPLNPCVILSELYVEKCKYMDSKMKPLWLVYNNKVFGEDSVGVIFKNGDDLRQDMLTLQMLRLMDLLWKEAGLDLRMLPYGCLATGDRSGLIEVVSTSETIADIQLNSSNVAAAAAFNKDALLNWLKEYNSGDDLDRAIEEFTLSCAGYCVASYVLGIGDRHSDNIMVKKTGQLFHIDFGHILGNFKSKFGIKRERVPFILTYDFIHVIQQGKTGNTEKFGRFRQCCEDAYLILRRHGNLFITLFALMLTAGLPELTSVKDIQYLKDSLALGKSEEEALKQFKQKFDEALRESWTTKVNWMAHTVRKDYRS
- Sequence (P27986 whole entry partner): as the sequence (P27986 whole entry partner) above
- protocol-details: PI 3-Kinase (human) HTRF assay, p110β/p85α
- Assay type: biochemical
- settings: in vitro; read-out: PI3K β IC50
pIC50: −log10 of the molar value.
Each entry below carries its recorded pIC50.

Worked set:
* CCN(CC)CCCNC(=O)c1cnc2ccc(-c3ccc4oc(N)nc4c3)cn12 [compound 302] | > 5.00
* Nc1nc2ccc(-c3ccc4nc(N)sc4c3)cc2o1 [compound 243] | > 7.00
* CCN(CC)CCNc1cnc2ccc(-c3ccc4oc(N)nc4c3)cc2n1 [compound 218] | > 6.00
* Nc1nc2cc(-c3nc(N4CCOCC4)c4cnn(C5CCNCC5)c4n3)ccc2o1 [compound 348] | > 7.00
* CN1CCN(C(=O)C2CN(c3cnc4ccc(-c5ccc6oc(N)nc6c5)cc4n3)C2)CC1 [compound 253] | > 5.00
* Nc1nc2cc(-c3ccc4ncc(C(=O)NCCN5CCCC5)n4c3)ccc2o1 [compound 296] | > 5.00
* Nc1nc2cc(-c3ccc4ncc(N5CC[C@@H](N6CCOCC6)C5)nc4c3)ccc2o1 [compound 376] | > 5.00
* Nc1nc2cc(-c3ccc4ncc(C(=O)N5CC(O)C5)n4c3)ccc2o1 [compound 200] | > 5.00
* C[C@H]1CN(c2cnc3cccc(-c4ccc5nc(N)oc5c4)c3n2)CCN1 [compound 343] | > 5.00
* Nc1nc2ccc(-c3ccc4nnc(-c5ccncc5)n4c3)cc2o1 [compound 230] | > 6.00

What measured pIC50 goes with CC(C)N1CCN(C2CN(c3cnc4ccc(-c5ccc6oc(N)nc6c5)cc4n3)C2)CC1 [compound 331] ? > 5.00

What measured pIC50 goes with CC(C)N1CCN(C(=O)C2CN(c3cnc4ccc(-c5ccc6oc(N)nc6c5)cc4n3)C2)CC1 [compound 285] ? > 5.00

What measured pIC50 goes with Nc1nc2cc(-c3ccc4ncc(N5CC(n6cccn6)C5)nc4c3)ccc2o1 [compound 318] ? > 5.00

What measured pIC50 goes with Cc1cc(-c2ccc3oc(N)nc3c2)cc2c(C(=O)N3CCCC3)cnn12 [compound 368] ? > 5.00

Reference source for all entries: patent US11547697B2
